These entries and their values trace back to patent US20240400560A1.

- STUDY TARGET: SARS-CoV-2 3CL protease (Severe acute respiratory syndrome coronavirus 2, UniProt P0DTD1)
- PROTOCOL DESCRIPTION: Inhibitory activity test against SARS-CoV-2 3CL proteases
- Assay type: biochemical
- RUN PARAMETERS: read-out: IC50 (50% SARS-CoV-2 3CL protease inhibitory concentration)
pIC50: −log10 of the molar value.
pIC50 by entry:

Consider the worked cases shown below.
1. COc1nc(N2C[C@@H]3C[C@H]2CO3)cc2c1c(=O)n(-c1cncc(F)c1)c(=O)n2-c1ccc(F)c(F)c1: > 7.00
2. COc1cc(-c2cc(N=S(C)(C)=O)ccc2Cl)cc2c1c(=O)n(-c1cncc(Cl)c1)c(=O)n2Cc1cc(F)c(F)c(F)c1: 7.55
3. COc1nc(N2CCC(O)(C(F)F)C2)cc2c1c(=O)n(-c1cncc(Cl)c1)c(=O)n2-c1ccc(F)c(Cl)c1 (stereo not shown): > 7.00
4. Cc1cncc(-n2c(=O)c3c(F)cc(-c4cc(CO)ccc4Cl)cc3n(Cc3ccc(F)c(C#N)c3)c2=O)c1: > 7.00
5. Cn1cnc(Cn2c(=O)c3c4c(c(-c5cc(C(C)(C)O)ccc5Cl)cc3n(Cc3cc(F)c(F)c(Cl)c3)c2=O)CCO4)n1: 8.96

stdin: Can you look up the measured pIC50 of Cc1cncc(-n2c(=O)c3c(Cl)cc(-c4cc(C(N)=O)ccc4Cl)cc3n(Cc3cc(F)c(F)c(F)c3)c2=O)c1 for me?
stdout: 7.72

stdin: Same for COc1nc(N2CC[C@@H](C(=O)O)C2)cc2c1c(=O)n(-c1cnc3cc(F)ccn13)c(=O)n2-c1ccc(F)c(Cl)c1
stdout: > 7.00

stdin: Try the compound Cc1cncc(-n2c(=O)c3c(F)cc(-c4cc(C(N)=O)ccc4Cl)cc3n(Cc3cc(F)c(F)cc3F)c2=O)c1
stdout: > 7.00

stdin: Okay, and COc1nc(N2CC[C@@H](O)C2)cc2c1c(=O)n(-c1cnc3cc(F)ccn13)c(=O)n2Cc1cc(F)c(F)c(Cl)c1 ?
stdout: > 7.00

stdin: Now the compound COc1nc(N2CC[C@@H](C#N)C2)cc2c1c(=O)n(-c1cnc3cc(F)ccn13)c(=O)n2Cc1cc(F)c(F)c(Cl)c1
stdout: 7.92

stdin: Now consider Cn1cnc(Cn2c(=O)c3nnc(N4CC[C@@H](F)C4)cc3n(Cc3cc(F)c(F)c(F)c3)c2=O)n1 and answer again.
stdout: 5.00 to 6.00

stdin: And the next one, O=c1[nH]c(N2CCC[C@@H]2CO)cc2c1c(=O)n(-c1cnc3ccccn13)c(=O)n2Cc1cc(F)c(F)c(Cl)c1 ?
stdout: > 7.00

stdin: Then COc1cc(-c2cc(C(=O)NCCO)ccc2Cl)cc2c1c(=O)n(Cc1ncn(C)n1)c(=O)n2Cc1cc(F)c(F)c(F)c1 ?
stdout: > 7.00
